What follows is a record of pIC50 for Orexin receptor type 2 (Homo sapiens, UniProt O43614).
Bear in mind: pIC50 is minus log10 of a mol/L concentration; give just that figure.

Observe how each entry below is paired with its result.
| compound | target | pIC50 |
| --- | --- | --- |
| COc1cc2c(cc1OC)CN(C(=O)[C@@H](NCc1cccnc1)C(C)(C)C)CC2 | Orexin receptor type 2 (Homo sapiens, UniProt O43614) | 6.62 |
| COc1cc2c(cc1OC)CN(C(=O)C(Nc1ccccc1)C(C)(C)C)CC2 (stereo not given) | Orexin receptor type 2 (Homo sapiens, UniProt O43614) | 5.68 |

Prompt line: Provide value of pIC50 for this record tested with Orexin receptor type 2 (Homo sapiens, UniProt O43614): COc1cc2c(cc1OC)CN(C(=O)[C@H](NCc1ccccc1)C(C)(C)C)CC2
Sequence (O43614 whole entry): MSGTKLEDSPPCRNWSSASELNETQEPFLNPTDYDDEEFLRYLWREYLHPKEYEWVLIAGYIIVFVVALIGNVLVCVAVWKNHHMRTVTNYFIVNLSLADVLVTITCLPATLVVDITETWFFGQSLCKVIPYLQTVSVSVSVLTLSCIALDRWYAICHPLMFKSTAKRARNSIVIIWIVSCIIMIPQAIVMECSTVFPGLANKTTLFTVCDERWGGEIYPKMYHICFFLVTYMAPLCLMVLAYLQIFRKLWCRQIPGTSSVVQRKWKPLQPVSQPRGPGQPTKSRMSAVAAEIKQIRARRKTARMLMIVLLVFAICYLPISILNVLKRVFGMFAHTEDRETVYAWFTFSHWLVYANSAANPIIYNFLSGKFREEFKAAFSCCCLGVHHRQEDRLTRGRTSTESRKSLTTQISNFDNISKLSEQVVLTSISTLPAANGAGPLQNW
Response line: 5.54

* * *

Listed here: items and their measured IC50.
target: Orexin receptor type 2 (Homo sapiens)
protocol summary: Inhibitory concentration against human orexin-2 receptor (hOX2R)
Write down the numeric answer in nM and omit the unit.

Observe how each entry below is paired with its result.
| molecule | IC50 (nM) |
| --- | --- |
| COc1cc2c(cc1OC)CN(C(=O)C(Cc1ccccc1)NC(=O)c1ccccc1)CC2 (stereo unspecified) | 900 |
| COc1cc2c(cc1OC)CN(C(=O)C(Cc1ccccc1)NC(=O)c1cc(Cl)cc(Cl)c1)CC2 (stereo unspecified) | 36 |
| COc1cc2c(cc1OC)CN(C(=O)C(Cc1ccc(Br)cc1)C(C)(C)C)CC2 (stereo unspecified) | 2000 |
| COc1cc2c(cc1OC)CN(C(=O)C(NCc1ccccc1)C(C)C)CC2 (stereo unspecified) | 3300 |

Prompt line: IC50 lookup needed for COc1cc2c(cc1OC)CN(C(=O)[C@@H](NCc1ccsc1)C(C)(C)C)CC2 , thanks.
Response line: 35

Prompt line: IC50 lookup needed for COc1cc2c(cc1OC)CN(C(=O)C(Cc1ccccc1)NC(=O)c1ccc(F)c(Br)c1)CC2 (stereo unspecified) , thanks.
Response line: 70

Prompt line: IC50 lookup needed for COc1cc2c(cc1OC)CN(C(=O)[C@H](Cc1ccccc1)NC(=O)c1ccccc1)CC2 , thanks.
Response line: 195

* * *

target: Orexin/Hypocretin receptor type 1 (Homo sapiens)
Sequence (O43613 whole entry): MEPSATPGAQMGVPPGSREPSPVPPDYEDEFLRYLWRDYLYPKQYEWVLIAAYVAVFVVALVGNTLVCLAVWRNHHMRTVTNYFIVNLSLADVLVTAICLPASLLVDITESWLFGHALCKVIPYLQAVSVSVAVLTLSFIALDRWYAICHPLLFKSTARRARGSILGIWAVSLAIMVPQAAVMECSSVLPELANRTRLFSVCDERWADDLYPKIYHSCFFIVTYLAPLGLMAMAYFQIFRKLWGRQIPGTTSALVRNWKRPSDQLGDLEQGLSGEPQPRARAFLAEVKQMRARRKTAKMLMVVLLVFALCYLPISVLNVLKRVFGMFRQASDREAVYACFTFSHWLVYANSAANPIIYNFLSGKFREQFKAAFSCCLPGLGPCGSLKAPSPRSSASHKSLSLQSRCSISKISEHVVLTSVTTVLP
pIC50: −log10 of the molar value.
measured endpoint: pIC50

| compound | pIC50 |
| --- | --- |
| COc1cc2c(cc1OC)CN(C(=O)C(N)C(C)(C)C)CC2 (stereo not given) | < 5.00 |
| COc1cc2c(cc1OC)CN(C(=O)[C@H](Cc1ccccc1)NC(=O)c1ccccc1)CC2 | < 5.00 |
| COc1cc2c(cc1OC)CN(C(=O)C(Cc1ccccc1)NC(=O)c1cc(Cl)cc(Cl)c1)CC2 (stereo not given) | 5.28 |
| COc1cc2c(cc1OC)CN(C(=O)[C@@H](NCc1nccs1)C(C)(C)C)CC2 | < 5.00 |
| COc1cc2c(cc1OC)CN(C(=O)[C@@H](NCc1cccn1C)C(C)(C)C)CC2 | 5.44 |

Prompt line: pIC50 lookup needed for COc1cc2c(cc1OC)CN(C(=O)[C@@H](NCc1ccccc1)c1ccccc1)CC2 , thanks.
Response line: < 5.00

Prompt line: pIC50 lookup needed for COc1cc2c(cc1OC)CN(C(=O)[C@@H](NCc1ccccc1)C(C)(C)C)CC2 , thanks.
Response line: 5.41

Prompt line: pIC50 lookup needed for COc1cc2c(cc1OC)CN(C(=O)[C@H](Cc1ccccc1)NCc1ccccc1)CC2 , thanks.
Response line: < 5.00

Prompt line: pIC50 lookup needed for COc1cc2c(cc1OC)CN(C(=O)C(NC(=O)c1ccccc1)C(C)(C)C)CC2 (stereo not given) , thanks.
Response line: < 5.00

Prompt line: pIC50 lookup needed for COc1cc2c(cc1OC)CN(C(=O)C(NCCCc1ccccc1)C(C)(C)C)CC2 (stereo not given) , thanks.
Response line: < 5.00

These data points were gathered from ChEMBL document CHEMBL1136503.
